Test system: OVCAR-5 complex spheroids with HUVEC/MSC, viability, % test/control
Assay: Anticancer human tumor OVCAR-5 cell line growth inhibition [AhR];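 further: spheroids exposed to compounds for 7 days; 100% = DMSO vehicle control wells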
Settings: second compound 0.316 µM; first compound 1 µM; active compounds read low
QUANTITY: viability, T/C (%)
Field: numeric (%). Do not append units.

>>> data_value("Nc1ccccc1NC(=O)c1ccc(CNC(=O)OCc2cccnc2)cc1 + Cc1cncc(-c2nc(NCCc3c[nH]c4ccccc34)c3ncn(C(C)C)c3n2)c1")
44.3
>>> data_value("COc1cccc2c1C(=O)c1c(O)c3c(c(O)c1C2=O)CC(O)(C(=O)CO)CC3OC1CC(N)C(O)C(C)O1 (centres undefined) + Cc1ccccc1N=Nc1ccc(NC(=O)c2ccnn2C)c(C)c1")
23.7
>>> data_value("O=C(C=Cc1cccc(S(=O)(=O)Nc2ccccc2)c1)NO + Cc1ccccc1N=Nc1ccc(NC(=O)c2ccnn2C)c(C)c1")
54.2

# ---- query compound ----
Note down viability, T/C recorded for COc1cc(Nc2ncc3c(n2)-c2ccc(Cl)cc2C(c2c(F)cccc2OC)=NC3)ccc1C(=O)O + Cc1cncc(-c2nc(NCCc3c[nH]c4ccccc34)c3ncn(C(C)C)c3n2)c1 59.9
